molecular target: human α5β3γ2 receptors (α5-GABAA receptor) (Homo sapiens (Human), UniProt P18507+P31644); experiment: 3H-flunitrazepam competition binding, human α5β3γ2 GABAA receptor; conditions: HEK293 cell membranes, 1 nM 3H-flunitrazepam; read-out: α5-GABAAR Ki
Attribute measured: Ki (nM)

A. COc1cc(N2CCNC(=O)C2)nnc1OCc1c(C)nnn1-c1ccc(C(F)F)cc1
B. Cc1nnn(-c2ccc(C(F)F)cc2)c1COc1ccc(N2CCC(N(C)C)C2)nn1 (centres unmarked)
*Q* Between the entries labeled A and B , whose measured Ki is lower? # reply format: chosen label
*A* B
(B: 0.89 nM, A: 1.5 nM)

1. Cc1nnn(-c2ccc(C(F)F)cc2)c1COc1ccc(N2CCN(c3cnn(C)c3)C(=O)C2)nn1
2. Cc1nnn(-c2ccc(C(F)F)cc2)c1COc1ccc(N2CC(C(=O)NC3COC3)C2)nn1
3. O=C1CN(c2ccc(OCc3cnnn3-c3ccc(Cl)cc3)nn2)CCN1
*Q* Rank order required: Ki, descending. Returns: the labels listed in the requested order.
*A* 3, 2, 1
(3: 49.2 nM, 2: 3.26 nM, 1: 0.93 nM)

A. Cc1nnn(-c2ccc(C(F)F)cc2)c1COc1ccc(N2CCN(CC3CCOC3)C(=O)C2)nn1 (centres unmarked)
B. Cc1nnn(-c2ccc(C(F)F)cc2)c1COc1ccc(N2CCN(c3ccncc3)C(=O)C2)nn1
*Q* When the recorded Ki values are compared, which is smaller: that of A or that of B ? Indicate which entry you chose by stating its label.
*A* A
(A: 1.53 nM, B: 2.82 nM)

A. Cc1nnn(-c2ccc(C(F)F)cc2)c1COc1ccc(N2CCN(c3ccn(C)n3)C(=O)C2)nn1
B. Cc1nnn(-c2ccc(C(F)F)cc2)c1COc1ccc(N2CCN3CC(c4cccc(Cl)c4)NC(=O)[C@@H]3C2)nn1 (some centres unmarked)
C. O=C1NCCN2CCN(c3ccc(OCc4c(CC5CC5)nnn4-c4ccc(C(F)F)cc4)nn3)C[C@@H]12
D. Cc1nnn(-c2ccc(F)cn2)c1COc1ccc(N2CCNC(=O)C2)nn1
*Q* Write the entries in order, lowest recorded Ki first. Thanks in advance for listing the labels in the requested order.
*A* A, B, D, C

a. Cc1nnn(-c2ccc(C(F)F)cc2)c1COc1ccc(N2CC(=O)N3CCN(C)CC3C2)nn1 (centres unmarked)
b. CNC(=O)[C@@H]1CN(c2ccc(OCc3c(C)nnn3-c3ccc(C(F)F)cc3)nn2)CCO1
c. Cc1nnn(-c2ccc(C(F)F)cc2)c1COc1ccc(N2CC(C(=O)N3CCOC(C)(C)C3)C2)nn1
d. Cc1nnn(-c2ccc(C(F)F)cc2)c1COc1ccc(N2C(=O)NC(C)(C)C2=O)nn1
*Q* # sort list by recorded Ki, greatest to least Use the labels to give the requested order.
*A* d, c, b, a

a. O=C1NCCN2CCN(c3ccc(OCc4c(C(F)F)nnn4-c4ccc(C(F)F)cc4)nn3)C[C@@H]12
b. Cc1nnn(-c2ccc(C(F)F)cc2)c1COc1nnc(N2CCN3CCNC(=O)[C@@H]3C2)c2ncccc12
c. Cc1nnn(-c2ccc(C(F)F)cc2)c1COc1ccc(N2CC(C(=O)Nc3cccnc3F)C2)nn1
d. Cc1nnn(-c2ccc(C#N)cc2)c1COc1ccc(N2CCNC(=O)C2)nn1
*Q* Put the compounds in ascending order of Ki. A complete answer lists every label in the requested sequence.
*A* b, c, a, d

a. Cc1nnn(-c2ccc(Cl)cc2)c1COc1ccc(N2CCNC(=O)C2)nn1
b. Cc1nnn(-c2ccc(C(F)F)cc2)c1COc1ccc(N2CC(C(=O)Nc3ccn(C)n3)C2)nn1
c. O=C1CN(c2ccc(OCc3c(Cl)nnn3-c3ccc(F)cc3)nn2)CCN1
d. Cc1nnn(-c2ccc(C(F)F)cc2)c1COc1ccc(N2CCN3C(=O)NC(=O)[C@@H]3C2)nn1
*Q* Put the items in sequence by Ki, from largest down. Give me the labels in the order the question wants.
*A* c, a, d, b

P. Cc1nnn(-c2ccc(C(F)F)cc2)c1COc1ccc(N2CC(C(=O)Nc3ccnn3C)C2)nn1
Q. O=C1CN(c2ccc(OCc3c(Cl)nnn3-c3ccc(C(F)F)cc3)nn2)CCN1
*Q* Of P and Q , which shows the smaller Ki value? Choose, then provide that item's label.
*A* Q

###

target: human α1β3γ2 receptors (Homo sapiens (Human), UniProt P14867+P18507); experiment: 3H-flunitrazepam competition binding, human α1β3γ2 GABAA receptor; details: HEK293 cell membranes, 1 nM 3H-flunitrazepam; read-out: Ki α1
Attribute measured: Ki (nM)

- Compound: "Cc1nnn(-c2ccc(C(F)F)cc2)c1COc1ccc(N2CC(=O)N3CCNCC3C2)nn1 (stereo not shown)"
  Observed: 56.9
- Compound: "Cc1nnn(-c2ccc(C(F)F)cc2)c1COc1cnc(N2CCNC(=O)C2)cn1"
  Observed: 73.5
- Compound: "Cc1nnn(-c2ccc(C(F)F)cc2)c1COc1ccc(N2CC(=O)NC(C)C2)nn1 (stereo not shown)"
  Observed: 59.8
- Compound: "Cc1nnn(-c2ccc(C(F)F)cc2)c1COc1ccc(N2CC(=O)NC(=O)C2)nn1"
  Observed: 58.1
- Compound: "Cc1ccc(-n2nnc(C)c2COc2ccc(N3CCN4CCNC(=O)[C@@H]4C3)nn2)cc1"
  Observed: 911
- Compound: "Cc1nnn(-c2ccc(C(F)F)cc2)c1COc1ccc(N2CC(=O)NC3(CC3)C2)nn1"
  Observed: 80.5

1. Cc1nnn(-c2ccc(C(F)F)cc2)c1COc1ccc(N2CCN3c4ccccc4NC(=O)[C@@H]3C2)nn1
2. Cc1nnn(-c2ccc(C(F)F)cc2)c1COc1ccc(N2CC(=O)NC(C)(C)C2)nn1
3. Cc1nnn(-c2ccc(C(F)F)cc2)c1COc1ccc(N2CCOC2=O)nn1
4. Cn1nnc(-c2ccc(C(F)F)cc2)c1COc1ccc(N2CCNC(=O)C2)nn1
5. Cc1nnn(-c2ccc(C(F)F)cc2)c1COc1ccc(N2CCNC(=O)C2)cn1
*Q* Sort the compounds on Ki; start with the lowest figure. Dear reader, please state the labels in the requested order.
*A* 3, 5, 2, 1, 4
(3: 21.9 nM, 5: 36.7 nM, 2: 122 nM, 1: 266 nM, 4: 400 nM)

a. Cc1nnn(-c2ccc(C(F)F)cc2)c1COc1ccc(N2CCNC2=O)nn1
b. Cc1nnn(-c2ccc(C(F)F)cc2)c1COc1ccc(N2CCN3CC(C4CC4)NC(=O)[C@@H]3C2)nn1 (single isomer, unassigned)
c. Cc1nnn(-c2ccc(C(F)F)cc2)c1COc1ccc(N2CCN(C)C(=O)C2)cn1
*Q* Sort the compounds on Ki; start with the lowest figure. Your answer should be the labels, listed in the requested order.
*A* a, c, b

1. Cc1nnn(-c2ccc(C(F)F)cc2)c1COc1ccc(N2CCNC(=O)C2)nn1
2. Cc1nnn(-c2ccc(C(F)F)cc2)c1COc1ccc(N2CCN3CCN(C4CC4)C(=O)[C@@H]3C2)nn1
*Q* Form field 'greater Ki' accepts 1 or 2 ; which applies? Returns: label corresponding to the selected item.
*A* 2

###

test: Rat pharmacokinetic experiment; assay type: in vivo; conditions: male, SD, rat, brain / plasma, po, 3 mg/kg; read-out: B/P (proportion of compounds entering the brain)
Attribute measured: Kp

Previously resolved entries follow.
- Compound: "O=C1NCCN2CCN(c3ccc(OCc4c(Cl)nnn4-c4ccc(C(F)F)cc4)nn3)C[C@@H]12"
  Kp: 0.0099
- Compound: "Cc1nnn(-c2ccc(C(F)F)cc2)c1COc1ccc(N2CC(C(=O)NC(C)C)C2)nn1"
  Kp: 0.0166
- Compound: "Cc1nnn(-c2ccc(C(F)F)cc2)c1COc1ccc(N2CCN3CCNC(=O)[C@@H]3C2)cn1"
  Kp: 0.0261

1. Cc1nnn(-c2ccc(C(F)F)cc2)c1COc1ccc(N2CC(=O)N3CCC[C@H]3C2)nn1
2. Cc1nnn(-c2ccc(C(F)F)cc2)c1COc1ccc(N2CCN(C3CC3)C(=O)C2)nn1
3. Cc1nnn(-c2ccc(C(F)F)cc2)c1COc1ccc(N2CC(=O)NC(C)C2)nn1 (stereo not shown)
*Q* Rank order required: Kp, descending. In plain terms: list the labels in the order you were asked to.
*A* 2, 1, 3
(2: 0.0208, 1: 0.0135, 3: 0.0015)

###

system: human MDR1 P-gp; test: MDCKII-MDR1 permeability; assay type: in vitro ADME, canine; conditions: dog, MDCK-MDR1, pH 7.4; Papp (B-A)/Papp (A-B); read-out: Efflux ratio (ER)
Attribute measured: efflux ratio at 1.5 h
# answer = number (no unit)

*Q* Using the record for Cc1nnn(-c2ccc(C(F)F)cc2)c1COc1ccc(N2CC(=O)NC(C)C2)nn1 (stereo not shown) , state its measured efflux ratio at 1.5 h.
*A* 7.52

###

target: human α5β3γ2 receptors (α5-GABAA receptor) (Homo sapiens (Human), UniProt P18507+P31644); test: 3H-flunitrazepam competition binding, human α5β3γ2 GABAA receptor; settings: HEK293 cell membranes, 1 nM 3H-flunitrazepam; read-out: α5-GABAAR Ki
Attribute measured: Ki (nM)

- Molecule: "Cc1nnn(-c2ccc(C(F)F)cc2)c1COc1ccc(N2CCN3CC(CC(C)C)NC(=O)[C@@H]3C2)nn1 (single isomer, unassigned) [Example 209]"
  Ki [nM]: 2.04
- Molecule: "O=C1CN(c2ccc(OCc3c(Cl)nnn3-c3ccc(C(F)F)cc3)nn2)C[C@H]2COCCN12"
  Ki [nM]: 1.37

1. CNS(=O)(=O)C1CCN(c2ccc(OCc3c(C)nnn3-c3ccc(C(F)F)cc3)nn2)C1 (stereo not shown)
2. Cc1nnn(-c2ccc(C(F)F)cc2)c1COc1ccc(N2CCN3CCCNC(=O)[C@@H]3C2)nn1
*Q* Sort 1 and 2 by Ki descending and give the first. When you have decided, please share the label of that item.
*A* 2
